Sourced from patent US20250236657A1

Target: AAV vector (AAV5-EGFP), adeno-associated virus serotype 5 (adeno-associated virus serotype 5 (AAV5))
Test: ELISA, AAV5-EGFP coated, culture supernatant, anti-6His, A450
Please go through the items and note down their Binding activity for AAV5 (vs AVR10s) (ratio (AVR10s = 1)).

Request: Binding activity for AAV5 (vs AVR10s) (ratio (AVR10s = 1)) for AVR10s_A330Y (receptor) MGSAGESDQITLPKNEVQLNYYVLQEPPKGETSTYDWQLITHPRDYSGEMEGEHSQILKLSNLTPGLYEFKAVVEGQNAHSEGYVNVTVEPEPRKNRPPIAIVSPQFQEISLPTTSTVIDGSQSTDDDKIVQYHWEELKGPLREEKISEDTAILKLSKLVPGNYTFRLTVVDSDGATDSTTANLTVNKAVDHHHHHH ?
Response: 2.19

Request: AVR10s_A330F (receptor) MGSAGESDQITLPKNEVQLNFYVLQEPPKGETSTYDWQLITHPRDYSGEMEGEHSQILKLSNLTPGLYEFKAVVEGQNAHSEGYVNVTVEPEPRKNRPPIAIVSPQFQEISLPTTSTVIDGSQSTDDDKIVQYHWEELKGPLREEKISEDTAILKLSKLVPGNYTFRLTVVDSDGATDSTTANLTVNKAVDHHHHHH , same question.
Response: 1.68

Request: AVR10s_I349N (receptor) MGSAGESDQITLPKNEVQLNAYVLQEPPKGETSTYDWQLNTHPRDYSGEMEGEHSQILKLSNLTPGLYEFKAVVEGQNAHSEGYVNVTVEPEPRKNRPPIAIVSPQFQEISLPTTSTVIDGSQSTDDDKIVQYHWEELKGPLREEKISEDTAILKLSKLVPGNYTFRLTVVDSDGATDSTTANLTVNKAVDHHHHHH , same question.
Response: 1.13
